Tested on: ADP-induced platelet aggregation in canine platelet rich plasma
Procedure Summary: Inhibition of ADP-Induced ex-vivo Platelet Aggregation after oral administration
Format: in vivo, mongrel dogs
Condition: Canis lupus familiaris, Platelet, dog, dose 5 mg/kg, 1 h after dosing, read-out: % Inhibition of ex-vivo Platelet Aggregation After Oral Administration, 1 h
compounds and their reported inhibition at 5 mg/kg
Write the value in % as a bare number.

- Compound: "CCN(CC(=O)NC(CC(=O)O)C(=O)NC(CC1CCCCC1)C(=O)O)C(=O)CCCC1CCNCC1 (centres unmarked)"
  Unit Descriptor: "%"
  inhibition at 5 mg/kg: 100
- Compound: "CCN(CC(=O)N[C@@H](CC(=O)O)C(=O)NCCC1CCCCC1)C(=O)CCCC1CCNCC1"
  Unit Descriptor: "%"
  inhibition at 5 mg/kg: 35
- Compound: "CCN(CC(=O)NC(CC(=O)O)C(=O)NC(CC1CCCCC1)C(N)=O)C(=O)CCCC1CCNCC1 (centres unmarked)"
  Unit Descriptor: "%"
  inhibition at 5 mg/kg: 100
- Compound: "CCN(CC(=O)NC(CC(=O)O)C(=O)NC(C(=O)O)C1CCCCC1)C(=O)CCCC1CCNCC1 (centres unmarked)"
  Unit Descriptor: "%"
  inhibition at 5 mg/kg: 100
- Compound: "CCN(CC(=O)NC(CC(=O)O)C(=O)NC(Cc1ccc2ccccc2c1)C(=O)O)C(=O)CCCC1CCNCC1 (centres unmarked)"
  Unit Descriptor: "%"
  inhibition at 5 mg/kg: 30

*Q* Requested read-out: inhibition at 5 mg/kg. Entry: CCN(CC(=O)NC(CC(=O)O)C(=O)NC(CC1CCCC2CCCCC21)C(=O)O)C(=O)CCCC1CCNCC1 (centres unmarked)
*A* 100

*Q* Requested read-out: inhibition at 5 mg/kg. Entry: CCN(CC(=O)NC(CC(=O)O)C(=O)NC(Cc1cccc2ccccc12)C(=O)O)C(=O)CCCC1CCNCC1 (centres unmarked)
*A* 30

*Q* Requested read-out: inhibition at 5 mg/kg. Entry: CCOC(=O)C(CC1CCCCC1)NC(=O)C(CC(=O)O)NC(=O)CN(CC)C(=O)CCCC1CCNCC1 (centres unmarked)
*A* 100
